Listed next: entries and their corresponding pIC50.
Target Desc: (recombinant) catalytic domain of human Bub1 (amino acids 704-1085) (Homo sapiens (Human), UniProt O43683)
Sequence (O43683 704-1085): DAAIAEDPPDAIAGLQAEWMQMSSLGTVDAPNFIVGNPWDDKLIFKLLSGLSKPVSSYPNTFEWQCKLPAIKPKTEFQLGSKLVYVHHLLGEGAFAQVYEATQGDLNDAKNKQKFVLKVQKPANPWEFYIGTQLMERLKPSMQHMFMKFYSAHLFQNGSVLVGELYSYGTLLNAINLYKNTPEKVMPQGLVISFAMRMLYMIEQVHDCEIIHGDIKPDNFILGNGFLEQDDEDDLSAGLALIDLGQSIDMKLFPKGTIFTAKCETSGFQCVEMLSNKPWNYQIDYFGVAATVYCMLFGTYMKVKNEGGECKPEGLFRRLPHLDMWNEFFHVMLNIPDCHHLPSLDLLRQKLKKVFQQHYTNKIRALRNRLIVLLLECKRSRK
Run Description: Bub1 kinase assay (TR-FRET)
Experimental Context: ATP 10 μM final, peptide substrate 1 μM final, 60 min at 22° C., read-out: Biological Assay: Bub1 kinase assay median IC50
Method: Examples were tested in selected biological assays one or more times. When tested more than once, data are reported as either average values or as median values, wherein • the average value, also referred to as the arithmetic mean value, represents the sum of the values obtained divided by the number of times tested, and • the median value represents the middle number of the group of values when ranked in ascending or descending order. […]
pIC50: −log10 of the molar value.

- Smiles: "O=C(Nc1cc(-c2[nH]c3c(c2Nc2ccccc2)C(=O)CCC3)ccn1)c1ncc[nH]1"
  pIC50: 7.32
- Smiles: "CC(C)NC(=O)Nc1cc(-c2[nH]c3c(c2Nc2ccccc2)C(=O)CCC3)ccn1"
  pIC50: 7.19
- Smiles: "N#CC1(C(=O)Nc2cc(-c3[nH]c4c(c3Nc3ccccc3)C(=O)CCC4)ccn2)CC1"
  pIC50: 7.22
- Smiles: "CC1(C)CC(=O)c2c([nH]c(-c3ccncc3)c2Nc2ccc3occc3c2)C1"
  pIC50: 7.06
- Smiles: "CC(=O)N(C(C)=O)c1cc(-c2[nH]c3c(c2Nc2ccccc2)C(=O)CC(C)(C)C3)ccn1"
  pIC50: 7.31
- Smiles: "Cn1ccc(C(=O)Nc2cc(-c3[nH]c4c(c3Nc3ccccc3)C(=O)CCC4)ccn2)n1"
  pIC50: 8.13
- Smiles: "CC1(C)CC(=O)c2c([nH]c(-c3ccncc3)c2Nc2cccc(-c3ccco3)c2)C1"
  pIC50: 7.93
- Smiles: "CCCC(=O)Nc1cccc(Nc2c(-c3ccncc3)[nH]c3c2C(=O)CC(C)(C)C3)c1"
  pIC50: 6.02

====

Target Desc: (recombinant) catalytic domain of human Bub1 (amino acids 704-1085) (Homo sapiens (Human), UniProt O43683)
Run Description: Bub1 kinase assay (TR-FRET)
Experimental Context: ATP 10 μM final, peptide substrate 1 μM final, 60 min at 22° C., read-out: Biological Assay: Bub1 kinase assay median IC50
Counter-ions that a name gives are not always drawn.
Class definitions on IC50: bottom (below 10 nM), middle (10 nM to below 600 nM), top (600 nM or more)

- Compound: "CC(F)C(=O)Nc1cc(-c2[nH]c3c(c2Nc2ccccc2)C(=O)CCC3)ccn1 (centres unmarked)"
  Assigned Class: "middle"
- Compound: "O=C(Nc1cc(-c2[nH]c3c(c2Nc2ccccc2)C(=O)CC2(CC2)C3)ccn1)c1cocn1"
  Assigned Class: "bottom"
- Compound: "CC1(C)CC(=O)c2c([nH]c(-c3cc[n+](CC(F)F)cc3)c2Nc2ccccc2)C1"
  Assigned Class: "top"
- Compound: "O=C1CCCc2[nH]c(-c3ccnc(NC(=O)[C@H]4C[C@@H]4F)c3)c(Nc3ccccc3)c21 [Example 251]"
  Assigned Class: "middle"
- Compound: "CC1(C)CC(=O)c2c([nH]c(-c3ccncc3)c2Nc2cccc(O)c2)C1"
  Assigned Class: "middle"
- Compound: "CNC(C)(C)C(=O)Nc1cc(-c2[nH]c3c(c2Nc2ccccc2)C(=O)CCC3)ccn1"
  Assigned Class: "top"
- Compound: "O=C1CCCc2[nH]c(-c3ccnc(NCCCc4ccccc4)c3)c(Nc3ccccc3)c21"
  Assigned Class: "top"
- Compound: "O=C(Nc1cc(-c2[nH]c3c(c2Nc2ccccc2)C(=O)CCC3)ccn1)c1cncs1"
  Assigned Class: "bottom"
- Compound: "CC(C)CNC(=O)Nc1cc(-c2[nH]c3c(c2Nc2ccccc2)C(=O)CCC3)ccn1"
  Assigned Class: "middle"
- Compound: "COc1cnccc1-c1[nH]c2c(c1Nc1ccccc1)C(=O)CC(C)(C)C2"
  Assigned Class: "bottom"
- Compound: "CC1(C)CC(=O)c2c([nH]c(-c3ccncc3)c2Nc2cccc3ccccc23)C1"
  Assigned Class: "top"
- Compound: "CC1(C)CC(=O)c2c(Nc3ccccc3)c(-c3ccncc3)n(CC(N)=O)c2C1 [Example 185, formic acid salt]"
  Assigned Class: "top"
- Compound: "CCc1ccccc1Nc1c(-c2ccncc2)[nH]c2c1C(=O)CC(C)(C)C2"
  Assigned Class: "middle"
- Compound: "CCC1CC(=O)c2c([nH]c(-c3ccncc3)c2Nc2ccccc2)C1 (centres unmarked)"
  Assigned Class: "bottom"
- Compound: "O=C(COCc1ccccn1)Nc1cc(-c2[nH]c3c(c2Nc2ccccc2)C(=O)CCC3)ccn1"
  Assigned Class: "middle"
- Compound: "O=C(NCc1ccco1)Nc1cc(-c2[nH]c3c(c2Nc2ccccc2)C(=O)CCC3)ccn1"
  Assigned Class: "middle"

====

Target Desc: (recombinant) catalytic domain of human Bub1 (amino acids 704-1085) (Homo sapiens (Human), UniProt O43683)
Run Description: Bub1 kinase assay (TR-FRET)
Experimental Context: ATP 10 μM final, peptide substrate 1 μM final, 60 min at 22° C., read-out: Biological Assay: Bub1 kinase assay median IC50
Response field label: string, one of YES (IC50 strictly below 80 nM) or NO.

- Compound: "CCCOc1cnccc1-c1[nH]c2c(c1Nc1ccccc1)C(=O)CCC2"
  Assigned Class: "YES"
- Compound: "COc1ccc(COCC(=O)Nc2cc(-c3[nH]c4c(c3Nc3ccccc3)C(=O)CCC4)ccn2)cc1"
  Assigned Class: "YES"
- Compound: "CC1(C)CC(=O)c2c([nH]c(-c3cc[n+](CCCO)cc3)c2Nc2ccccc2)C1"
  Assigned Class: "NO"
- Compound: "CC1(C)CC(=O)c2c([nH]c(-c3ccncc3)c2Nc2cccc(OCc3ccccc3)c2)C1"
  Assigned Class: "NO"
- Compound: "COC(=O)CCn1c2c(c(Nc3ccccc3)c1-c1ccncc1)C(=O)CCC2"
  Assigned Class: "NO"
- Compound: "CC1(C)CC(=O)c2c([nH]c(-c3ccncc3)c2Nc2ccccn2)C1"
  Assigned Class: "YES"
- Compound: "O=C(COc1ccccc1)Nc1cc(-c2[nH]c3c(c2Nc2ccccc2)C(=O)CCC3)ccn1"
  Assigned Class: "YES"
- Compound: "CC1(C)CC(=O)c2c([nH]c(-c3ccncc3)c2Nc2cccc(C3OCCO3)c2)C1"
  Assigned Class: "NO"
- Compound: "CC1(C)CC(=O)c2c([nH]c(-c3ccncc3)c2Nc2ccccc2F)C1"
  Assigned Class: "NO"
- Compound: "O=C1CCCc2[nH]c(-c3ccnc(NCc4ccc(F)cc4)c3)c(Nc3ccccc3)c21"
  Assigned Class: "NO"
- Compound: "CC1(C)CC(=O)c2c([nH]c(-c3cc(Cl)nc(Cl)c3)c2Nc2ccccc2)C1"
  Assigned Class: "NO"
- Compound: "O=C1CCCc2[nH]c(-c3ccnc(NC(=O)C4CC4c4ccccc4)c3)c(Nc3ccccc3)c21 (centres unmarked)"
  Assigned Class: "YES"
- Compound: "O=C1CCCc2[nH]c(-c3ccnc(F)c3)c(Nc3ccccc3)c21"
  Assigned Class: "YES"
- Compound: "COc1ccc(Cn2cc(C(=O)Nc3cc(-c4[nH]c5c(c4Nc4ccccc4)C(=O)CC(C)(C)C5)ccn3)cn2)cc1"
  Assigned Class: "YES"
- Compound: "Cc1cc(-c2[nH]c3c(c2Nc2ccccc2)C(=O)CCC3)ccn1"
  Assigned Class: "NO"

====

Target Desc: (recombinant) catalytic domain of human Bub1 (amino acids 704-1085) (Homo sapiens (Human), UniProt O43683)
Run Description: Bub1 kinase assay (TR-FRET)
Experimental Context: ATP 10 μM final, peptide substrate 1 μM final, 60 min at 22° C., read-out: Biological Assay: Bub1 kinase assay median IC50
Measurement Name: IC50 (nM)

- Compound: "Cc1ccc(Nc2c(-c3ccncc3)[nH]c3c2C(=O)CC(C)(C)C3)cc1Cl"
  Experimental Value: 296
- Compound: "COC(C)C(=O)Nc1cc(-c2[nH]c3c(c2Nc2ccccc2)C(=O)CCC3)ccn1 (stereo not shown)"
  Experimental Value: 65.4
- Compound: "O=C(Cc1ccco1)Nc1cc(-c2[nH]c3c(c2Nc2ccccc2)C(=O)CCC3)ccn1"
  Experimental Value: 16.7
- Compound: "CC1(C)CC(=O)c2c([nH]c(-c3ccncc3)c2Nc2cc(F)ccc2CO)C1"
  Experimental Value: 3.35

====

Target Desc: (recombinant) catalytic domain of human Bub1 (amino acids 704-1085) (Homo sapiens (Human))
Run Description: Bub1 kinase assay (TR-FRET)
Experimental Context: ATP 10 μM final, peptide substrate 1 μM final, 60 min at 22° C., read-out: Biological Assay: Bub1 kinase assay median IC50
Protocol: Examples were tested in selected biological assays one or more times. When tested more than once, data are reported as either average values or as median values, wherein • the average value, also referred to as the arithmetic mean value, represents the sum of the values obtained divided by the number of times tested, and • the median value represents the middle number of the group of values when ranked in ascending or descending order. […]
pIC50: −log10 of the molar value.
Label 1 when pIC50 is at or above 7; otherwise label 0.

- Compound: "O=C(Nc1cc(-c2[nH]c3c(c2Nc2ccccc2)C(=O)CCC3)ccn1)c1nccs1"
  Target Desc: "(recombinant) catalytic domain of human Bub1 (amino acids 704-1085) (Homo sapiens (Human))"
  Assigned Class: 1
- Compound: "CC1(C)CC(=O)c2c([nH]c(-c3cc(Cl)ncc3Cl)c2Nc2ccccc2)C1"
  Target Desc: "(recombinant) catalytic domain of human Bub1 (amino acids 704-1085) (Homo sapiens (Human))"
  Assigned Class: 0
- Compound: "CCc1ccc(Nc2c(-c3ccncc3)[nH]c3c2C(=O)CC(C)(C)C3)cc1"
  Target Desc: "(recombinant) catalytic domain of human Bub1 (amino acids 704-1085) (Homo sapiens (Human))"
  Assigned Class: 0
- Compound: "O=C1CCC(C(=O)Nc2cc(-c3[nH]c4c(c3Nc3ccccc3)C(=O)CCC4)ccn2)N1 (centres unmarked)"
  Target Desc: "(recombinant) catalytic domain of human Bub1 (amino acids 704-1085) (Homo sapiens (Human))"
  Assigned Class: 1
- Compound: "O=C(NCCCl)Nc1cc(-c2[nH]c3c(c2Nc2ccccc2)C(=O)CCC3)ccn1"
  Target Desc: "(recombinant) catalytic domain of human Bub1 (amino acids 704-1085) (Homo sapiens (Human))"
  Assigned Class: 1
- Compound: "CC1(C)CC(=O)c2c([nH]c(-c3ccncc3OCC3CC3)c2Nc2ccccc2)C1"
  Target Desc: "(recombinant) catalytic domain of human Bub1 (amino acids 704-1085) (Homo sapiens (Human))"
  Assigned Class: 1
- Compound: "Cn1nccc1COCC(=O)Nc1cc(-c2[nH]c3c(c2Nc2ccccc2)C(=O)CCC3)ccn1"
  Target Desc: "(recombinant) catalytic domain of human Bub1 (amino acids 704-1085) (Homo sapiens (Human))"
  Assigned Class: 1
- Compound: "CC(C)C1CC(=O)c2c([nH]c(-c3ccncc3)c2Nc2ccccc2)C1 (single isomer, unassigned) [Example 18]"
  Target Desc: "(recombinant) catalytic domain of human Bub1 (amino acids 704-1085) (Homo sapiens (Human))"
  Assigned Class: 1
